Taken from paper PMC9414910.

assayMethodText: Blood pharmacokinetics in male ICR mice
Type: in vivo
runConditions: 7.4 MBq i.v., two-compartment model
Record form. Attribute: Elimination half-life. Fill in for each entry.
# number only, unit min dropped from output

Give its Elimination half-life value. Item: O=C([O-])CN1CCN(CC(=O)[O-])CCN(CC(=O)NCc2ccc(C(=O)NC(Cc3cnc4ccccc4c3)C(=O)NCCCCC(NC(=O)NC(CCC(=O)O)C(=O)O)C(=O)O)cc2)CCN(CC(=O)O)CC1.[68Ga+3] (stereo not shown) [[^68Ga]Ga-PSMA-Q-3]
25.72

Also need O=C([O-])CN1CCN(CC(=O)[O-])CCN(CC(=O)NCC2CCC(C(=O)NC(Cc3cnc4ccccc4c3)C(=O)NCCCCC(NC(=O)NC(CCC(=O)O)C(=O)O)C(=O)O)CC2)CCN(CC(=O)O)CC1.[68Ga+3] (stereo not shown) [[^68Ga]Ga-PSMA-Q] , thanks.
17.86

Also need O=C([O-])CN1CCN(CC(=O)[O-])CCN(CC(=O)NCCCCCC(=O)NC(Cc2cnc3ccccc3c2)C(=O)NCCCCC(NC(=O)NC(CCC(=O)O)C(=O)O)C(=O)O)CCN(CC(=O)O)CC1.[68Ga+3] (stereo not shown) [[^68Ga]Ga-PSMA-Q-2] , thanks.
20.22

Also need O=C([O-])CN1CCN(CC(=O)[O-])CCN(CC(=O)NCC2CCC(C(=O)NC(Cc3ccc4ccccc4c3)C(=O)NCCCCC(NC(=O)NC(CCC(=O)O)C(=O)O)C(=O)O)CC2)CCN(CC(=O)O)CC1.[68Ga+3] (stereo not shown) [[^68Ga]Ga-PSMA-617, reference compound] , thanks.
28.46

Also need O=C([O-])CN1CCN(CC(=O)[O-])CCN(CC(=O)NCCCCC(=O)NC(Cc2cnc3ccccc3c2)C(=O)NCCCCC(NC(=O)NC(CCC(=O)O)C(=O)O)C(=O)O)CCN(CC(=O)O)CC1.[68Ga+3] (stereo not shown) [[^68Ga]Ga-PSMA-Q-1] , thanks.
21.17

Also need O=C([O-])CN1CCN(CC(=O)[O-])CCN(CC(=O)NCC2CCC(C(=O)NC(Cc3ccncc3)C(=O)NCCCCC(NC(=O)NC(CCC(=O)O)C(=O)O)C(=O)O)CC2)CCN(CC(=O)O)CC1.[68Ga+3] (stereo not shown) [[^68Ga]Ga-PSMA-4PY] , thanks.
15.15

Also need O=C([O-])CN(CCN(CC(=O)[O-])Cc1cc(CCC(=O)NCCCCCC(=O)NCCCC[C@H](NC(=O)N[C@@H](CCC(=O)O)C(=O)O)C(=O)O)ccc1[O-])Cc1cc(CCC(=O)O)ccc1[O-].[68Ga+3].[OH3+] [[^68Ga]Ga-PSMA-11, reference compound] , thanks.
16.69

* * *

Tested on: 22Rv1 tumor-bearing mice
assayMethodText: Biodistribution in 22Rv1 tumor-bearing mice
runConditions: 60 min p.i., 0.74 MBq, n = 3
quantityKind: Uptake Heart, Mean (ID%/g)
# number only, unit ID%/g dropped from output

Give its Uptake Heart, Mean value. Item: O=C([O-])CN1CCN(CC(=O)[O-])CCN(CC(=O)NCc2ccc(C(=O)NC(Cc3cnc4ccccc4c3)C(=O)NCCCCC(NC(=O)NC(CCC(=O)O)C(=O)O)C(=O)O)cc2)CCN(CC(=O)O)CC1.[68Ga+3] (stereo not shown) [[^68Ga]Ga-PSMA-Q-3]
1.11

Also need O=C([O-])CN1CCN(CC(=O)[O-])CCN(CC(=O)NCCCCCC(=O)NC(Cc2cnc3ccccc3c2)C(=O)NCCCCC(NC(=O)NC(CCC(=O)O)C(=O)O)C(=O)O)CCN(CC(=O)O)CC1.[68Ga+3] (stereo not shown) [[^68Ga]Ga-PSMA-Q-2] , thanks.
0.50

Also need O=C([O-])CN(CCN(CC(=O)[O-])Cc1cc(CCC(=O)NCCCCCC(=O)NCCCC[C@H](NC(=O)N[C@@H](CCC(=O)O)C(=O)O)C(=O)O)ccc1[O-])Cc1cc(CCC(=O)O)ccc1[O-].[68Ga+3].[OH3+] [[^68Ga]Ga-PSMA-11, reference compound] , thanks.
0.53

Also need O=C([O-])CN1CCN(CC(=O)[O-])CCN(CC(=O)NCC2CCC(C(=O)NC(Cc3cnc4ccccc4c3)C(=O)NCCCCC(NC(=O)NC(CCC(=O)O)C(=O)O)C(=O)O)CC2)CCN(CC(=O)O)CC1.[68Ga+3] (stereo not shown) [[^68Ga]Ga-PSMA-Q] , thanks.
0.08
